Test: log P by HPLC
Format: physicochemical
Conditions: EEC directive 79/831 Annex V. A8 by HPLC (gradient method, acetonitrile/0.1% aqueous phosphoric acid)
value_kind: logP

molecule: CCONc1c(-c2ccccc2F)c(Cl)nc2nc(C)nn12 [compound 362]
endpoint_value: 2.28

molecule: Cc1nc2nc(Cl)c(-c3c(F)cc(F)cc3F)c(NC(C)C(C)C)n2n1 (stereo not drawn) [compound 523]
endpoint_value: 3.38

molecule: Cc1nc2nc(Cl)c(-c3c(F)cccc3F)c(NC(C)(C)C(F)(F)F)n2n1 [compound 421]
endpoint_value: 3.34

====

// reported logP for each item listed
Test: log P by HPLC
Format: physicochemical
Conditions: EEC directive 79/831 Annex V. A8 by HPLC (gradient method, acetonitrile/0.1% aqueous phosphoric acid)
value_kind: logP

test_smiles: CCNc1c(-c2ccccc2F)c(Cl)nc2nc(C)nn12
endpoint_value: 2.3

test_smiles: C#CCN(C)c1c(-c2c(F)cccc2F)c(Cl)nc2nc(C)nn12
endpoint_value: 2.54

test_smiles: CC(C)CNc1c(-c2c(F)cccc2Cl)c(Cl)nc2nc(C3CC3)nn12
endpoint_value: 3.64

test_smiles: CC(=O)CC(C)(C)Nc1c(-c2ccc(F)cc2F)c(Cl)nc2nc(C)nn12
endpoint_value: 2.53

From: patent US7186831B2
